- EXPERIMENT: Selectivity index, ratio of IC50 for antiproliferative activity against human MCF-10A cells to IC50 for antiproliferative activity against human MDA-MB-231 cells by MTT assay
- Type: toxicity, cell-based
- RUN_CONDITIONS: MCF-10A cells versus MDA-MB-231 cells, read-out: Ratio IC50
Readings of selectivity ratio for the listed molecules

// solved cases for selectivity ratio follow
NCCOc1ncccc1/C=C1\c2ccccc2-c2ccc([N+](=O)[O-])cc21 | 1.6
NCCOc1ncccc1C=C1c2ccccc2-c2ccncc21 (mixture of isomers) | 1.4
NCCOc1ncccc1C=C1c2ccccc2-c2ccc(C(F)F)cc21 (mixture of isomers) | 1.4
NCCOc1ncccc1C=C1c2ccccc2-c2ccc(F)cc21 (mixture of isomers) | 5.8

// query selectivity ratio value for entry NCCOC(=O)c1cnn2cc(C=C3c4ccccc4-c4ccc(F)cc43)ccc12 (mixture of isomers)
3.3
